Measured target: T1, recombinant HHLA2-His (UniProt Q9UM44 23-344, limits assumed)
T1 construct: Analyte in the Biacore assay; also called HHLA2-His analyte; not shown: His tag
T1 sequence (looked up): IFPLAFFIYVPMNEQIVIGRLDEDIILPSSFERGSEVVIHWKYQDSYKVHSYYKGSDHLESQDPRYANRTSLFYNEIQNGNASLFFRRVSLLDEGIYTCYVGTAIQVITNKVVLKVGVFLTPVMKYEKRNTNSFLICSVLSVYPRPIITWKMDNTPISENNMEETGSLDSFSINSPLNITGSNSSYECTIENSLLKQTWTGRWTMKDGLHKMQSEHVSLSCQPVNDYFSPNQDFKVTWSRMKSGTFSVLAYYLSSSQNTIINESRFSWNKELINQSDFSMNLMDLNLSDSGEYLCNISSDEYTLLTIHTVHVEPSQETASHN
Assay info: SPR (Biacore, Cytiva); antibody captured on CM5 chip, HHLA2-His as analyte; monovalent
A collection of binders and their measured kon
Answer format: numeric, M⁻¹ s⁻¹ implied, no suffix.

Consider the reported kon for these binders:
• Ab-65885 (antibody, human IgG1, kappa, V domains shown, tested as IgG) VH: QVQLVQSGAEVKKPGASVKVSCKASGYTFDSYKMHWVRQAPGQRLEWMGYIPAGTGNTKYSQKFQGRVTITRDTSASTAYMELSSLRSEDTAVYYCARDRGGYYYDSWDDWGQGTLVTVSS VL: DIQMTQSPSSLSASVGDRVTITCRASQSISSYLNWYQQKPGKAPKLLIYGASSLQSGVPSRFSGSGSGTDFTLTISSLQPEDFATYYCQQVAFTPPTFGGGTKVEIKR = 325000
• Ab-65889 (antibody, human IgG1, kappa, V domains shown, tested as IgG) VH: QVQLVQSGAEVKKPGASVKVSCKASGYTFASYKMHWVRQAPGQRLEWMGDIPAGTGNTHYSQKFQGRVTITRDTSASTAYMELSSLRSEDTAVYYCARDRGGYYYDSWDDWGQGTLVTVSS VL: DIQMTQSPSSLSASVGDRVTITCRASQSISSYLNWYQQKPGKAPKLLIYGASSLQSGVPSRFSGSGSGTDFTLTISSLQPEDFATYYCQQVPFEPPTFGGGTKVEIKR = 128000
• Ab-65886 (antibody, human IgG1, kappa, V domains shown, tested as IgG) VH: QVQLVQSGAEVKKPGASVKVSCKASGYTFEKYAMHWVRQAPGQRLEWMGFIPAGTGNTKYSQKFQGRVTITRDTSASTAYMELSSLRSEDTAVYYCARDRGGYYYDSWDDWGQGTLVTVSS VL: DIQMTQSPSSLSASVGDRVTITCRASQSISSYLNWYQQKPGKAPKLLIYGASSLQSGVPSRFSGSGSGTDFTLTISSLQPEDFATYYCQQVAFTPPTFGGGTKVEIKR = 609000
• Ab-65887 (antibody, human IgG1, kappa, V domains shown, tested as IgG) VH: QVQLVQSGAEVKKPGASVKVSCKASGYTFEQYAMHWVRQAPGQRLEWMGFIPAGTGNTKYSQKFQGRVTITRDTSASTAYMELSSLRSEDTAVYYCARDRGGYWYDSWDDWGQGTLVTVSS VL: DIQMTQSPSSLSASVGDRVTITCRASQSISSYLNWYQQKPGKAPKLLIYGASSLQSGVPSRFSGSGSGTDFTLTISSLQPEDFATYYCQQVVFTPPTFGGGTKVEIKR = 900000

Query kon for Ab-65890 (antibody, human IgG1, V domains shown, tested as IgG) VH: QVQLVQSGAEVKKPGASVKVSCKASGYTFNSYRMHWVRQAPGQRLEWMGSIPAGTGNTVYSQKFQGRVTITRDTSASTAYMELSSLRSEDTAVYYCARDRGGYYYDSWDDWGQGTLVTVSS VL: DIQMTQSPSSLSASVGDRVTITCRASQSISSYLNWYQQKPGKAPKLLIYGASSLQSGVPSRFSGSGSGTDFTLTISSLQPEDFATYYCQQVPFEPPTFGGGTKVEIK 123000
